- Tested Target: BTK protein (Homo sapiens)
- Construct: endogenous in cells; host or cells: TMD-8 cells
- Sequence (Q06187 whole entry): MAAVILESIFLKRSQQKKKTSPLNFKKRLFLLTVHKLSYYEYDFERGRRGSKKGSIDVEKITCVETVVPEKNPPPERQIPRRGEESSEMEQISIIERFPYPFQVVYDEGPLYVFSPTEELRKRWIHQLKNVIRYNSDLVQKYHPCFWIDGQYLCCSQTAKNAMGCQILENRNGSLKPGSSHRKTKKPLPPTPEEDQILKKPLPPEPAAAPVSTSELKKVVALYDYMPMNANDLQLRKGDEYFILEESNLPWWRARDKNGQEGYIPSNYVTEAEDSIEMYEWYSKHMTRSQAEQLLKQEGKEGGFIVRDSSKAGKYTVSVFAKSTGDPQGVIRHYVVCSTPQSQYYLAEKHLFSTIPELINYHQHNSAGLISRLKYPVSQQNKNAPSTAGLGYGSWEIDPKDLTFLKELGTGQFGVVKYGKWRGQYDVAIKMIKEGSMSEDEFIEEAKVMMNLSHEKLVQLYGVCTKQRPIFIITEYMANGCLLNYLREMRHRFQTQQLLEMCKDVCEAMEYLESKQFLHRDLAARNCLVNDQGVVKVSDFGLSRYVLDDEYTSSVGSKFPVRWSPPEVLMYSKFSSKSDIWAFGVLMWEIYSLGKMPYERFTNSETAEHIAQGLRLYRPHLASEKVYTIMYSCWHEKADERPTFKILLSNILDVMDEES
- Experiment: Measurement of BTK protein degradation ability in TMD-8 cells (Western blotting)
- Assay type: cell-based
- Condition Context: compound 1 nM, harvested after 24 hours
Give BTK degradation (%) 1 nM for every item shown.
One number for each entry, in %.

Cc1cc(-c2ccnc(Nc3ccc(N4CCN(CC5CCN(c6cccc(N7CCC(=O)NC7=O)c6)CC5)CC4)cc3)n2)ccc1CNC(=O)c1cnn(C(C)(C)C)c1 : 65.0
Cc1cc(-c2ccnc(Nc3ccc(N4CCN(CC5CCN(c6ccc(OC7CCC(=O)NC7=O)cc6)CC5)CC4)cc3)n2)ccc1CNC(=O)c1cnn(C(C)C)c1 (stereo not drawn) : 53.5
COc1ccc(C(=O)N2CCC(CN3CCN(c4ccc(Nc5nccc(-c6cc(F)cc(NC(=O)N7CC(OC(C)C)C7)c6C)n5)cc4)CC3)CC2)cc1N1CCC(=O)NC1=O : 4
Cc1cc(-c2ccnc(Nc3ccc(N4CCC(CN5CCN(c6ccc7c(c6)C(=O)N(C6CCC(=O)NC6=O)C7=O)CC5)CC4)cc3)n2)ccc1CNC(=O)N1CC(OC(C)C)C1 (stereo not drawn) : 44
Cc1c(NC(=O)N2CC(OC(C)C)C2)cc(F)cc1-c1ccnc(Nc2ccc(N3CCN(CC4CCN(CC(=O)Nc5cccc(NC6CCC(=O)NC6=O)c5)CC4)CC3)cc2)n1 (stereo not drawn) : 1
Cc1cc(-c2ccnc(Nc3ccc(N4CCC(CN5CCC(c6ccc(OC7CCC(=O)NC7=O)cc6)CC5)CC4)cc3)n2)ccc1CNC(=O)N1CC(OC(C)C)C1 (stereo not drawn) : 41.5
Cc1cc(-c2ccnc(Nc3ccc(N4CCN(CC5CCN(c6ccc7c(n6)CN(C6CCC(=O)NC6=O)C7=O)CC5)CC4)cc3)n2)ccc1CNC(=O)N1CC(OC(C)C)C1 (stereo not drawn) : 56
Cc1cc(-c2ccnc(Nc3ccc(N4CCN(CC5CN(c6ccc7c(c6)C(=O)N(C6CCC(=O)NC6=O)C7=O)C5)CC4)cc3)n2)ccc1CNC(=O)c1cnn(C(C)C)c1 (stereo not drawn) : 41

Go through the list and state BTK degradation (%) 1 nM for each entry.
1. Cc1cc(-c2ccnc(Nc3ccc(N4CCC(CN5CCC(c6ccc(NC7CCC(=O)NC7=O)cc6)CC5)CC4)nc3)n2)ccc1CNC(=O)c1cn(C(C)(C)C)nn1 (stereo not drawn)
2. Cc1cc(-c2ccnc(Nc3ccc(C4CCN(CC5CCN(c6ccc(OC7CCC(=O)NC7=O)cn6)CC5)CC4)cc3)n2)ccc1CNC(=O)N1CC(OC(C)C)C1 (stereo not drawn)
3. Cc1cc(-c2ccnc(Nc3ccc(N4CCN(CC5CCN(c6ccc(OC7CCC(=O)NC7=O)cn6)CC5)CC4)cc3)n2)ccc1CNC(=O)N1CC(OC(C)C)C1 (stereo not drawn)
4. Cc1cc(-c2ccnc(Nc3ccc(N4CCN(CC5CN(c6ccc7c(c6)C(=O)N(C6CCC(=O)NC6=O)C7=O)C5)CC4)cc3)n2)ccc1CNC(=O)c1cn(C(C)(C)C)nn1 (stereo not drawn)
5. Cc1c(NC(=O)N2CC(OC(C)C)C2)cc(F)cc1-c1ccnc(Nc2ccc(N3CCN(CC4CN(c5ccc6c(n5)CN(C5CCC(=O)NC5=O)C6=O)C4)CC3)cc2)n1 (stereo not drawn)

Outgoing:
1. 26.5
2. 24.0
3. 19.7
4. 58.5
5. 21.5

Go through the list and state BTK degradation (%) 1 nM for each entry.
1. Cc1cc(-c2ccnc(Nc3ccc(N4CCN(CC5CCN(c6cccc(N7CCC(=O)NC7=O)c6)CC5)CC4)cc3)n2)ccc1CNC(=O)c1cn(C(C)(C)C)nn1
2. COc1ccc(C(=O)N2CCC(CN3CCN(c4ccc(Nc5nccc(-c6ccc(CNC(=O)N7CC(OC(C)C)C7)c(C)c6)n5)cc4)CC3)CC2)cc1N1CCC(=O)NC1=O
3. Cc1cc(-c2ccnc(Nc3cnn(C4CCN(CC5CCN(c6ccc7c(c6)C(=O)N(C6CCC(=O)NC6=O)C7=O)CC5)CC4)c3)n2)ccc1CNC(=O)N1CC(OC(C)C)C1 (stereo not drawn)
4. Cc1cc(-c2ccnc(Nc3ccc(C4CCN(CC5CCN(C(=O)c6cccc(NC7CCC(=O)NC7=O)c6)CC5)CC4)cc3)n2)ccc1CNC(=O)N1CC(OC(C)C)C1 (stereo not drawn)

Outgoing:
[67.0, 22, 70, 46.5]

Go through the list and state BTK degradation (%) 1 nM for each entry.
1. Cc1cc(-c2ccnc(Nc3ccc(N4CCC(CN5CCC(c6ccc(NC7CCC(=O)NC7=O)cc6)CC5)CC4)cc3)n2)cnc1CNC(=O)c1cn(C(C)(C)C)nn1 (stereo not drawn)
2. Cc1cc(-c2ccnc(Nc3ccc(N4CCC(CN5CCN(c6ccc(NC7CCC(=O)NC7=O)cn6)CC5)CC4)cc3)n2)ccc1CNC(=O)c1cnn(C(C)(C)C)c1 (stereo not drawn)
3. Cc1cc(-c2ccnc(Nc3ccc(C4CCN(C5CCN(c6ccc7c(c6)C(=O)N(C6CCC(=O)NC6=O)C7=O)CC5)CC4)cc3)n2)ccc1CNC(=O)N1CC(OC(C)C)C1 (stereo not drawn)
4. Cc1cc(-c2ccnc(Nc3ccc(N4CC(CN5CCN(c6ccc7c(c6)C(=O)N(C6CCC(=O)NC6=O)C7=O)CC5)C4)cc3)n2)ccc1CNC(=O)N1CC(OC(C)C)C1 (stereo not drawn)

Outgoing:
1: 25.0; 2: 59.5; 3: 28.0; 4: 44.0

Each recorded value in this set is attributed to patent US20250041429A1.
